Data provenance is patent US20150147274A1.

# assayed_system: T1, MET928 (cMET protein derived from construct 25-928) (human, UniProt P08581 25-928)
# T1 construct: MET ectodomain, residues 1-24 are the leader; produced in Lec 8 cells; background text says the ectodomain is furin-cleaved into alpha (25-307) and beta chains; biotinylated form used in selections; also called MET928 extracellular domain; Met extracellular domain
# T1 sequence (P08581 25-928): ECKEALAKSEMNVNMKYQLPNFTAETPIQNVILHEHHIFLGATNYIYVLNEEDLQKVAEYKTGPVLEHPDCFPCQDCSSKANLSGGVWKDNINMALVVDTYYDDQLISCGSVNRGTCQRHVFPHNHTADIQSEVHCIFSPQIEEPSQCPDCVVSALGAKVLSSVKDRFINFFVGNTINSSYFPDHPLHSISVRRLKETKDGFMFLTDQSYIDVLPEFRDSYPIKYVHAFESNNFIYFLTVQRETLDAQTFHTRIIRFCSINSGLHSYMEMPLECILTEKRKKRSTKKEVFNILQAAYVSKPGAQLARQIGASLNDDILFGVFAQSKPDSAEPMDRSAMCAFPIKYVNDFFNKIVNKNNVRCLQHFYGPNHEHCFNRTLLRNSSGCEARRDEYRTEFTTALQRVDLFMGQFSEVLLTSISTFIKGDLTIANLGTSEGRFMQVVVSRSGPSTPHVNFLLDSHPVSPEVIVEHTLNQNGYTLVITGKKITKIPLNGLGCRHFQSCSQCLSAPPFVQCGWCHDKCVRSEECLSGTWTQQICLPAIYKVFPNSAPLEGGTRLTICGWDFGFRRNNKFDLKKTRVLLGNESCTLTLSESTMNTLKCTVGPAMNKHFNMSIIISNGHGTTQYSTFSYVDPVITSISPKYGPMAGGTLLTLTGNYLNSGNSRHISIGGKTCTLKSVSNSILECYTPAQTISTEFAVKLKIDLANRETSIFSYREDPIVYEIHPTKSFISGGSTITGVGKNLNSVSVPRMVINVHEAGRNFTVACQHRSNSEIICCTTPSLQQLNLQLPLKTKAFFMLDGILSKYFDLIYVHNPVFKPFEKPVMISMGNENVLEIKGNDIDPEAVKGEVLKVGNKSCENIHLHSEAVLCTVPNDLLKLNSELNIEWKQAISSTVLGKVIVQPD
# method_description: ELISA, soluble scFv
quantity_kind: binding result

Ask: GET /values?readout=binding result&item= 112_G6 (scFv, not shown: 6xHis/tri-FLAG tags) scFv: QMQLVQSGAEVKKPGAPVKVSCKVSGYTFTDYYMHWVQQAPGKGLEWMGLVDPEDGETIYAEKFQGRVTITADTSTDTAYMELSSLRSEDTAVYYCATDATTPYWFPFVWGQGTLVTVSSLEGGGGSGGGGSGGGASDIQMTQSPSSLSASVGDRVTITCQASQDISNYLNWYQQKPGRAPKVLIYDASNLETGVPSRFSGSGSGTEFTLTISNLRPDDFATYYCQQGDSFPLTFGGGTKVEIK
Result: binds

Ask: Consider next the binder 107_B7 (scFv, not shown: 6xHis/tri-FLAG tags) scFv: QMQLVQSGAEVKKPGAPVKVSCKVSGYTFTDYYMHWVQQAPGKGLEWMGLVDPEDGETIYAEKFQGRVTITADTSTDTAYMELSSLRSEDTAVYYCATDATTPYWCMRAWGQGTLVTVSSLEGGGGSGGGGSGGGASDIQMTQSPSSLSASVGDRVTITCQASQDISNYLNWYQQKPGRAPKVLIYDASNLETGVPSRFSGSGSGTEFTLTISNLRPDDFATYYCQQGDSFPLTFGGGTKVEIK in the same way.
Result: binds

Ask: Next up: 112_G9 (scFv, not shown: 6xHis/tri-FLAG tags) scFv: QMQLVQSGAEVKKPGAPVKVSCKVSGYTFTDYYMHWVQQAPGKGLEWMGLVDPEDGETIYAEKFQGRVTITADTSTDTAYMELSSLRSEDTAVYYCATDATTPYWGMQRWGQGTLVTVSSLEGGGGSGGGGSGGGASDIQMTQSPSSLSASVGDRVTITCQASQDISNYLNWYQQKPGRAPKVLIYDASNLETGVPSRFSGSGSGTEFTLTISNLRPDDFATYYCQQGDSFPLTFGGGTKVEIK
Result: binds

Ask: Moving on to the next binder: 107_B10 (scFv, not shown: 6xHis/tri-FLAG tags) scFv: QMQLVQSGAEVKKPGAPVKVSCKVSGYTFTDYYMHWVQQAPGKGLEWMGLVDPEDGETIYAEKFQGRVTITADTSTDTAYMELSSLRSEDTAVYYCATDATTPYWGMRVWGQGTLVTVSSLEGGGGSGGGGSGGGASDIQMTQSPSSLSASVGDRVTITCQASQDISNYLNWYQQKPGRAPKVLIYDASNLETGVPSRFSGSGSGTEFTLTISNLRPDDFATYYCQQGDSFPLTFGGGTKVEIK
Result: binds
